Value source: patent US20110086759A1

- Tested on: Setaria faberi (SETFA)
- protocol: Post-emergence biological efficacy, glasshouse pot test
- Type: in vivo
- condition: 312 h, Rate 1,000 g/ha, post-emergence spray, evaluated after 13 days (100=total damage to plant; 0=no damage to plant), read-out: Percentage damage caused to weed species, post-emergence, SETFA
measured parameter: pest or weed control at 1000 g/ha (%)

>  <entry smiles>
COC(=O)c1nc(C2CC2)nc(N(C)Cc2cccc(OC)c2)c1Cl

>  <measured parameter>
pest or weed control at 1000 g/ha

>  <measurement>
30

$$$$
>  <entry smiles>
C=Cc1ccc(-c2c(NCc3ccco3)nc(C3CC3)nc2C(=O)OC)cc1

>  <measured parameter>
pest or weed control at 1000 g/ha

>  <measurement>
0

$$$$
>  <entry smiles>
COC(=O)c1nc(C2CC2)nc(N(C)Cc2ccc([N+](=O)[O-])cc2)c1Cl

>  <measured parameter>
pest or weed control at 1000 g/ha

>  <measurement>
60

$$$$
>  <entry smiles>
COC(=O)c1nc(-c2ccc(F)c(Cl)c2)nc(NCc2ccco2)c1Cl

>  <measured parameter>
pest or weed control at 1000 g/ha

>  <measurement>
70

$$$$

---

Listed compounds paired with reported pest or weed control at 1000 g/ha
- Tested on: Solanum nigrum (SOLNI)
- protocol: Pre-emergence biological efficacy, glasshouse pot test
- Type: in vivo
- condition: 312 h, pre-emergence, rate 1,000 g/ha, evaluated after 13 days (100=total damage to plant; 0=no damage), read-out: Percentage damage caused to weed species, SOLNI
- Description: Seeds of Alopecurus myosuroides (ALOMY), Setaria faberi (SETFA), Echinochloa crus-galli (ECHCG), Solanum nigrum (SOLNI), Amaranthus retoflexus (AMARE) and Ipomea hederaceae (IPOHE) were sown in standard soil in pots. […] The test plants were then grown under controlled conditions in the glasshouse (at 24/16° C., day/night; 14 hours light; 65% humidity) and watered twice daily. After 13 days the test was evaluated (100=total damage to plant; 0=no damage to plant).

>  <compound>
COC(=O)c1nc(-c2ccc(OC)cc2)nc(NCc2ccco2)c1Cl

>  <unit spec>
%

>  <pest or weed control at 1000 g/ha>
0

$$$$
>  <compound>
COC(=O)c1nc(C2CC2)nc(N(CC=C(C)C)Cc2ccccc2C(F)(F)F)c1Cl

>  <unit spec>
%

>  <pest or weed control at 1000 g/ha>
20

$$$$
>  <compound>
COC(=O)c1nc(C2CC2)nc(N(CCC#N)Cc2ccco2)c1Cl

>  <unit spec>
%

>  <pest or weed control at 1000 g/ha>
30

$$$$
>  <compound>
COC(=O)c1nc(-c2ccc(Cl)s2)nc(NC2CC2)c1Cl

>  <unit spec>
%

>  <pest or weed control at 1000 g/ha>
0

$$$$
>  <compound>
COCCN(C/C=C/c1ccco1)c1nc(C2CC2)nc(C(=O)OC)c1Cl

>  <unit spec>
%

>  <pest or weed control at 1000 g/ha>
10

$$$$
>  <compound>
CCOC(=O)c1nc(C2CC2)nc(NCc2ccco2)c1Cl

>  <unit spec>
%

>  <pest or weed control at 1000 g/ha>
100

$$$$
>  <compound>
COC(=O)c1nc(Cl)nc(NCc2ccco2)c1Cl

>  <unit spec>
%

>  <pest or weed control at 1000 g/ha>
40

$$$$
>  <compound>
COC(=O)c1nc(C2CC2)nc(N(C)Cc2ccc(C)cc2)c1Cl

>  <unit spec>
%

>  <pest or weed control at 1000 g/ha>
20

$$$$
>  <compound>
COC(=O)c1nc(C2CC2)nc(N(C)CC(O)c2ccccc2)c1Cl (centres unmarked)

>  <unit spec>
%

>  <pest or weed control at 1000 g/ha>
100

$$$$
>  <compound>
COC(=O)c1nc(-c2ccc(C)cc2F)nc(NCc2ccco2)c1Cl

>  <unit spec>
%

>  <pest or weed control at 1000 g/ha>
10

$$$$
>  <compound>
C=CCN(Cc1cccs1)c1nc(C2CC2)nc(C(=O)OC)c1Cl

>  <unit spec>
%

>  <pest or weed control at 1000 g/ha>
70

$$$$

---

- Tested on: Solanum nigrum (SOLNI)
- protocol: Pre-emergence biological efficacy, glasshouse pot test
- Assay type: in vivo
- condition: 312 h, pre-emergence, rate 1,000 g/ha, evaluated after 13 days (100=total damage to plant; 0=no damage), read-out: Percentage damage caused to weed species, SOLNI
Listed compounds paired with reported pest or weed control at 1000 g/ha

>  <compound>
COC(=O)c1nc(C2CC2)nc(N(C)Cc2cc(OC)cc(OC)c2)c1Cl [Compound 5-113]

>  <pest or weed control at 1000 g/ha / %>
10

$$$$
>  <compound>
CCN(Cc1cccs1)c1nc(C2CC2)nc(C(=O)OC)c1Cl [Compound 6-140]

>  <pest or weed control at 1000 g/ha / %>
30

$$$$
>  <compound>
COC(=O)c1nc(Cl)nc(NCc2ccc(C)o2)c1Cl [Compound 207-50]

>  <pest or weed control at 1000 g/ha / %>
80

$$$$
>  <compound>
CCOC(=O)CCN(Cc1ccccc1)c1nc(C2CC2)nc(C(=O)OC)c1Cl [Compound 162-60]

>  <pest or weed control at 1000 g/ha / %>
20

$$$$
>  <compound>
COC(=O)c1nc(-c2ccc(Cl)c(F)c2)nc(NCc2ccco2)c1Cl [Compound 222-48]

>  <pest or weed control at 1000 g/ha / %>
100

$$$$
>  <compound>
COC(=O)c1nc(-c2ccc(F)c(F)c2F)nc(NCc2ccco2)c1Cl [Compound 247-48]

>  <pest or weed control at 1000 g/ha / %>
40

$$$$
>  <compound>
CCN(Cc1cccc(F)c1)c1nc(C2CC2)nc(C(=O)OC)c1Cl [Compound 6-65]

>  <pest or weed control at 1000 g/ha / %>
40

$$$$
>  <compound>
COC(=O)c1nc(-c2ccc(Cl)cc2F)nc(NCc2ccco2)c1Cl [Compound 218-48]

>  <pest or weed control at 1000 g/ha / %>
90

$$$$
>  <compound>
COC(=O)c1nc(-c2ccc(OC)cc2OC)nc(NCc2ccco2)c1Cl [Compound 252-48]

>  <pest or weed control at 1000 g/ha / %>
0

$$$$
>  <compound>
COC(=O)c1nc(C2CC2)nc(N(C)Cc2ccc(Cl)c(Cl)c2)c1Cl [Compound 5-105]

>  <pest or weed control at 1000 g/ha / %>
60

$$$$

---

Listed molecules paired with reported pest or weed control at 1000 g/ha
- Test system: Solanum nigrum (SOLNI)
- protocol: Pre-emergence biological efficacy, glasshouse pot test
- Type: in vivo
- condition: 312 h, pre-emergence, rate 1,000 g/ha, evaluated after 13 days (100=total damage to plant; 0=no damage), read-out: Percentage damage caused to weed species, SOLNI

>  <molecule>
COC(=O)c1nc(C2CC2)nc(N(C)Cc2ccc([N+](=O)[O-])cc2)c1Cl

>  <unit spec>
%

>  <pest or weed control at 1000 g/ha>
60

$$$$
>  <molecule>
COC(=O)c1nc(-c2cc(F)c(Cl)c(F)c2)nc(NCc2ccco2)c1Cl

>  <unit spec>
%

>  <pest or weed control at 1000 g/ha>
0

$$$$
>  <molecule>
COC(=O)c1nc(-c2ccc(C)cc2Cl)nc(NCc2ccco2)c1Cl

>  <unit spec>
%

>  <pest or weed control at 1000 g/ha>
0

$$$$
>  <molecule>
O=C(NCc1cccs1)c1nc(C2CC2)nc(NCc2cccs2)c1Cl

>  <unit spec>
%

>  <pest or weed control at 1000 g/ha>
0

$$$$
>  <molecule>
CCC(C)N(Cc1ccccc1)c1nc(C2CC2)nc(C(=O)OC)c1Cl (centres unmarked)

>  <unit spec>
%

>  <pest or weed control at 1000 g/ha>
80

$$$$
>  <molecule>
CCN(Cc1ccccc1F)c1nc(C2CC2)nc(C(=O)OC)c1Cl

>  <unit spec>
%

>  <pest or weed control at 1000 g/ha>
20

$$$$
>  <molecule>
COC(=O)c1nc(-c2ccc(C)cc2)nc(NCc2ccco2)c1Cl

>  <unit spec>
%

>  <pest or weed control at 1000 g/ha>
0

$$$$
>  <molecule>
COC(=O)c1nc(-c2ccc(Cl)c(Cl)c2Cl)nc(NCc2ccco2)c1Cl

>  <unit spec>
%

>  <pest or weed control at 1000 g/ha>
40

$$$$

---

- Test system: Alopecurus myosuroides (ALOMY)
- protocol: Post-emergence biological efficacy, glasshouse pot test
- Format: in vivo
- condition: 312 h, post-emergence, 1,000 g/ha, evaluated after 13 days (100=total damage; 0=no damage), read-out: Percentage damage caused to weed species, ALOMY
measured parameter: pest or weed control at 1000 g/ha

>  <molecule>
COC(=O)c1nc(C2CC2)nc(NCc2ccc(C)cc2)c1Cl

>  <measurement>
20%

$$$$
>  <molecule>
COC(=O)c1nc(C2CC2)nc(NC(CO)C2CCOC2)c1Cl (stereo not drawn)

>  <measurement>
10%

$$$$
>  <molecule>
COC(=O)c1nc(C2CC2)nc(N[C@H](c2ccccc2)[C@@H](O)c2ccccc2)c1Cl

>  <measurement>
40%

$$$$
>  <molecule>
COC(=O)c1nc(C2CC2)nc(NCc2cccnc2)c1Cl

>  <measurement>
30%

$$$$
>  <molecule>
COC(=O)c1nc(C2CC2)nc(NC2(/C=C/c3cccc(Cl)c3Cl)CC2)c1Cl

>  <measurement>
10%

$$$$
>  <molecule>
COC(=O)c1nc(C2CC2)nc(NCC(O)c2ccccc2)c1Cl (stereo not drawn)

>  <measurement>
60%

$$$$
>  <molecule>
COC(=O)c1nc(C2CC2)nc(NCCN2CCNC2=O)c1Cl

>  <measurement>
0%

$$$$
>  <molecule>
COC(=O)c1nc(C2CC2)nc(NC2(/C=C/c3ccccc3F)CC2)c1Cl

>  <measurement>
10%

$$$$
>  <molecule>
COC(=O)c1nc(C2CC2)nc(NCC2CCC=CO2)c1Cl (stereo not drawn)

>  <measurement>
20%

$$$$
>  <molecule>
COC(=O)c1nc(C2CC2)nc(NC(C)c2ccc(C)cc2C)c1Cl (stereo not drawn)

>  <measurement>
10%

$$$$
>  <molecule>
COC(=O)c1nc(C2CC2)nc(NCc2ncccc2Cl)c1Cl

>  <measurement>
50%

$$$$
>  <molecule>
COC(=O)c1nc(C2CC2)nc(NC(C)COc2ccc(C#N)cc2)c1Cl (stereo not drawn)

>  <measurement>
20%

$$$$
>  <molecule>
COC(=O)c1nc(C2CC2)nc(NC2(c3ccccn3)CC2)c1Cl

>  <measurement>
20%

$$$$
>  <molecule>
COC(=O)c1nc(C2CC2)nc(NCc2ccc(S(N)(=O)=O)cc2)c1Cl

>  <measurement>
0%

$$$$
>  <molecule>
COC(=O)c1nc(C2CC2)nc(NCc2ccccc2)c1Cl

>  <measurement>
20%

$$$$
>  <molecule>
COC(=O)c1nc(C2CC2)nc(N[C@@H](c2ccccc2)[C@H](O)c2ccccc2)c1Cl

>  <measurement>
40%

$$$$
>  <molecule>
O=C(O)c1nc(C2CC2)nc(NC2CCCC2)c1Cl

>  <measurement>
30%

$$$$
>  <molecule>
COC(=O)c1nc(C2CC2)nc(NCCC2=CCCCC2)c1Cl

>  <measurement>
20%

$$$$
>  <molecule>
COC(=O)c1nc(C2CC2)nc(NC(c2ccc(Cl)cc2)C2CC2)c1Cl (stereo not drawn)

>  <measurement>
20%

$$$$
>  <molecule>
COC(=O)c1nc(C2CC2)nc(NC2(/C=C/c3ccc(F)cc3F)CC2)c1Cl

>  <measurement>
10%

$$$$
>  <molecule>
COC(=O)c1nc(C2CC2)nc(NCCN2CCOCC2)c1Cl

>  <measurement>
20%

$$$$
